# Tested on: BUB1;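 also: KINOMEscan kinase panel screen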
# RUN CONDITIONS: concentration: 1 μM, replicates: in singlicate; n = 1
// reported %Inh for each item listed
Record the value in %, omitting the unit from your answer.

Consider the worked cases shown below.
• Cc1ccc(C(=O)Nc2ccc(Nc3ccnc4cc(-c5ccccn5)ccc34)cc2O)cc1.Cl = 54
• Cc1cccc(-c2nc(Nc3ccncc3)c3ccccc3n2)n1 = 0
• COC(=O)c1c(-c2ccccc2)c2cc(C(=O)O)ccc2c(=O)n1Cc1ccccc1 = 0

Task item: Using the record for Fc1cccc(COc2nnc(-c3ccc4c(c3)CCO4)o2)c1 , report its %Inh.
Reply: 20

Task item: And for CS(=O)(=O)c1ccc(-c2c(-c3ncn[nH]3)sc(N3CCOCC3)c2C#N)cc1 ?
Reply: 29

Task item: Queued: Cl.NC(=O)c1cccc(Nc2nccc(Nc3ccc(Oc4cccc(Cl)c4)c(Cl)c3)n2)c1
Reply: 36

Task item: Follow-up item: Fc1cc(Cl)ccc1Nc1ccnc2cc(I)ccc12
Reply: 54

Task item: Param item: Cc1cccc(-c2nc(-c3ccc(S(C)(=O)=O)cc3)sc2-c2ccnc(NCCc3ccccc3)c2)c1
Reply: 24

Task item: Entry to check: Cl.Oc1ccc(-c2nc(-c3ccccc3)[nH]c2-c2ccncc2)cc1
Reply: 93
